- assay_procedure: in vitro
- settings: human, hela cells, % viability
quantity_name: viability at 28.5 h, 10 µM

molecule	quantity_name	reported_measurement
CC(C)Nc1cc(SCCc2ccccn2)ncn1	viability at 28.5 h, 10 µM	97.8%
O=C(CC1NC(=O)N(C2CCCCC2)C1=O)Nc1cccc(CCc2ccncc2)c1 (stereo not drawn)	viability at 28.5 h, 10 µM	93.1%
N#Cc1ccc(C(=O)N2Cc3nc[nH]c3C[C@H]2c2nc(-c3ccncc3)no2)cc1	viability at 28.5 h, 10 µM	117%
O=C(Cn1cc(C(=O)Nc2cc(F)ccc2N2CCCC2)ccc1=O)NC1CCCCC1	viability at 28.5 h, 10 µM	102%
Cc1[nH]c2c(C(=O)NCCCC3CCOC3)cccc2c1C (stereo not drawn)	viability at 28.5 h, 10 µM	84.1%
COc1ccc(OC)c2c1cc(C(=O)NC[C@H]1CC[C@H](C(=O)O)CC1)n2C	viability at 28.5 h, 10 µM	86.1%
CN(C)c1cccc(C2CCCN2c2nc3c(cnn3C)c(=O)[nH]2)c1 (stereo not drawn)	viability at 28.5 h, 10 µM	78.6%
O=C(Nc1ccccc1)c1cccc(S(=O)(=O)NCc2cccs2)c1	viability at 28.5 h, 10 µM	87.1%
COc1ccc2cc(/C=N/NC(=O)CN3CCCCC3)c(Cl)nc2c1	viability at 28.5 h, 10 µM	95.3%

----------
Measured viability at 28.5 h, 10 µM, listed per entry.
- assay_procedure: in vitro
- settings: human, hela cells, % viability

compound	viability at 28.5 h, 10 µM, %
CC(=O)NCc1cccc(-c2cc(C(=O)NCCc3cccc(OC(F)(F)F)c3)cnc2-c2ccc(Cl)cc2)c1	84.7
COc1ccc(C(=O)N(C)C2CCN(C)C2)cc1Nc1cncc(-c2cc3ccccc3[nH]2)n1 (stereo not shown) [CBK155260T]	108
Cc1ccc(CC(=O)N2CCC(Cc3ccc(-c4cccc(C)c4)cc3)(C(N)=O)CC2)cc1	89
Cc1ccc(Nc2nc3c(c(=O)[nH]2)CCCC3)cc1	100
NNC(=O)c1c(NC(=O)c2ccccc2)sc2c1CCC2	104
CCOC(=O)NC(=S)NCCCn1ccnc1	112
CN(C1=NS(=O)(=O)c2ccccc21)c1ccc(OC(=O)C2CC(=O)N(c3ccccc3)C2)cc1 (stereo not shown)	87
O=C(Nc1ccc(NC(=O)C2CC=CCC2C(=O)O)cc1Cl)C1CCCCC1 (stereo not shown)	89.7
Cc1ccccc1-n1ncc2c(N3CCCC3)ncnc21	99.2
CS(=O)(=O)N(CC(=O)NCc1ccccn1)c1ccc(I)cc1	78.8
COc1cc(C2N3CC4(C)CN2CC(C)(C3)C4=O)ccc1O (stereo not shown)	99.6
O=C(NC1CC1)c1ccc(-n2cccn2)c(C#Cc2ccccn2)c1	106
COc1cc(C(=O)N2CCC3(CC2)CC(=O)c2cc(CN4CCOCC4)ccc2O3)cc(OC)c1C	109
N#CC(CCCN1CCN(c2ccccc2)CC1)(c1ccccc1)c1ccccc1 [CBK002243C]	96.8
c1csc(Sc2nc3ccccc3nc2N2CCCC2)c1	94.3
CCOc1cc(/C=C2\SC(=S)N(Cc3ccccc3)C2=O)cc(Cl)c1OC(=O)c1ccco1	106
CC(=O)NCCSc1nc2ccccc2nc1NC(C)C	102
CC(CNC(=O)C1CCCCC1C(=O)O)c1ccccc1 (stereo not shown)	97.1
COCC(=O)NC(Cc1cccs1)c1nc(C)cs1 (stereo not shown)	87.3

----------
- assay_procedure: in vitro
- settings: human, hela cells, % viability
Measured viability at 28.5 h, 10 µM, listed per entry.
quantity_name: viability at 28.5 h, 10 µM (%)

molecule	reported_measurement
CCc1cccc2c(CC(=O)NCCn3ccc(C)n3)c(C)[nH]c12 [CBK282698]	105
CC(C)Nc1nc(NC(C)C)nc(Oc2ccc(C=O)cc2)n1 [CBK265043]	111
COC(=O)c1c(NC(=O)C(=O)NCc2cccnc2)sc2c1CCCC2 [CBK269170]	88.8
COc1ccc(C(C)C)cc1-c1cnc(N)c(N2CCOCC2)n1 [CBK063384]	92.1
Cc1nc(C)n(CC2CCCN(Cc3nc4ccccc4o3)C2)n1 (stereo not drawn) [CBK305828]	95.3
COc1ccc(N2C(=O)c3ccccc3NC2c2cccc(OCC(=O)Nc3ccccc3)c2)cc1 (stereo not drawn) [CBK265406]	108
Cc1nc2c(C(=O)NCC(F)(F)F)cnn2c(C)c1Cc1cccc(F)c1 [CBK162117]	112
Cc1cc(C)n(-c2nc3ccccc3nc2N2CCN(S(=O)(=O)c3ccc4ccccc4c3)CC2)n1 [CBK269134]	103
CN(C)CCNc1nc(-c2cncnc2)cnc1N [CBK063661]	97.8

----------
- assay_procedure: in vitro
- settings: human, hela cells, % viability
Measured viability at 28.5 h, 10 µM, listed per entry.

compound	viability at 28.5 h, 10 µM [%]
CSc1nc2ccc3nc(NC(C)=O)sc3c2s1	106
CCN(CC)CC1CCCCC1=O (stereo not shown) [CBK023965G]	93.9
O=C(CC1CC1)NCc1ccc(-c2csnn2)cc1	92.8
CC(C)(C)N(Cc1ccccc1)C(=O)Cn1nc(C(=O)O)c2ccccc2c1=O	86
O=C(Cc1ccccc1)N(Cc1ccco1)C1CCN(c2ccc3c(c2)OCCO3)CC1	106
Cc1cc(NS(=O)(=O)c2cccc3cccnc23)n(C)n1	89.1
CCOC(=O)C1CCN(Cn2nc(-c3cccs3)oc2=S)CC1	85.9
Oc1c(C(c2ccccc2)N2CCc3ccccc3C2)sc2ncnn12 (stereo not shown)	99.9
CC(C)(CN1CCCCC1)NC(=O)CCOc1cccc(F)c1	87.2
CC(=O)N1CCN(Cc2nc3cc(NC(=O)Cn4nc(C)c5ccccc5c4=O)ccc3n2C)CC1	87.8

----------
- assay_procedure: in vitro
- settings: human, hela cells, % viability

molecule	viability at 28.5 h, 10 µM [%]
CN(C)CC(=O)N1Cc2cccc3c2c(cn3S(=O)(=O)c2ccccc2)C1 [CBK155548T]	94.5
O=C(Cc1cc(Cl)ccc1C(F)(F)F)Nc1ccc2ncccc2c1	94.7
CS(=O)(=O)Nc1ccc2cc(-c3cccc(C(F)(F)F)c3)cnc2n1	94.1
Cc1ccc(C(=O)NCc2ccc(-c3n[nH]cc3C(=O)N(C)c3ccccc3)cc2)cc1	98.7
O=C(NC(c1ccc(F)cc1)c1ccc2ccccc2n1)C1CCN(CCCN2CCOCC2)CC1 (stereo not drawn)	91.8
Cc1ccc(NC(=O)c2cnc(SCc3ccccn3)n(C)c2=O)cc1	92.9
CS(=O)(=O)c1ccc(Nc2cncc(N3CCC(Sc4ccccn4)CC3)c2C#N)cc1	85.2
CC(C)CNc1ccc(-c2cccc(N(C)C)c2)cn1	76.9
COc1cccc(Sc2cc(N3CCCC3)ncn2)c1	110

----------
- assay_procedure: in vitro
- settings: human, hela cells, % viability

compound	viability at 28.5 h, 10 µM [%]
Clc1cccc(Cl)c1CN(Cc1ccccc1)c1ncnc2[nH]cnc12 [CBK266571]	95.2
O=C(Cn1c(=O)cc(O)c2ccccc21)N1CCN(c2ccccn2)CC1 [CBK291117]	94.4
C#C[C@H]1C[N@@]2CC[C@H]1C[C@@H]2CNC(=O)Nc1ccc(C(C)=O)cc1 [CBK288755]	114
CCCCC1CCC(C(=O)O)CC1 (centres unmarked) [CBK122493]	82.4
CCn1c(C)nc2cc(NC(=O)c3oc(C)nc3C)ccc21 [CBK281881]	106

----------
- assay_procedure: in vitro
- settings: human, hela cells, % viability
Measured viability at 28.5 h, 10 µM, listed per entry.

molecule	viability at 28.5 h, 10 µM (%)
COCOc1ccc(-c2ncc(OCCN3CCCC3=O)nc2NC(C)=O)cc1 [CBK145253]	104
CN1CCN(c2ccc3ccn(S(=O)(=O)c4ccccc4Br)c3n2)CC1 [CBK200019C]	92.5
O=C(O)c1ccccc1SC1CCc2ccccc2NC1=O (stereo not shown) [CBK286683]	83.1
FC(F)CN1CCN(Cc2ccc(Oc3cnccn3)cc2)CC1 [CBK306399]	101
C/C(=N/NC(=O)C(C)CN1CCOCC1)c1ccc(Cl)cc1 (stereo not shown) [CBK016045]	81.4
CC(CC(=O)O)CC(=O)NC1CCN(Cc2ccccc2)CC1 (stereo not shown) [CBK287042]	91.4
COc1ccc(C(=O)N[C@H]2C[C@H]3C(=O)Nc4ccc(-c5ccsc5)cc4C(=O)N3C2)cc1 [CBK289362]	91.7
COc1cncc(-c2cnc3[nH]c(=O)n([C@H](CO)C(C)C)c3n2)c1 [CBK064977]	107
COc1ccc(-c2nc3cc(NC(=O)c4ccccc4Br)ccc3o2)cc1 [CBK264953]	95.5
CC1(C)CC(NS(=O)(=O)c2ccc(Br)cc2)CC(C)(C)N1 [CBK266805]	97.7
COCCOCCCN1CCC2(CC1)NC(=O)Cc1ccc(C)cc12 [CBK040222]	109
O=C(COc1ccc(-c2cc(-c3ccccc3)c3cc(Cl)ccc3n2)cc1)N/N=C/c1ccc2ncccc2c1 [CBK263365]	95.8
Nc1ncc(-c2ccco2)nc1N1CCC(C(=O)O)CC1 [CBK063440]	87
O=C(O)C1CCN(C(=O)CCC(=O)N2CCN(c3ccccc3)CC2)CC1 [CBK286896]	93.9
O=C(NCCCc1ccccc1)c1cccc(S(=O)(=O)N2CCCC2)c1 [CBK305024]	96.1
COC(=O)CCc1ccc(S(=O)(=O)N2CCCN(Cc3c[nH]c4ccc(OC)cc34)CC2)cc1 [CBK062985]	98.1
Cc1cc(=O)[nH]c(-n2nc(C)cc2NC(=O)c2ccccc2C)n1 [CBK287654]	92.5
Cc1cc(NS(=O)(=O)c2cc(C(=O)O)c(Cl)cc2F)n(C)n1 [CBK067260]	102
OCCCNc1nccnc1-c1cccc(F)c1 [CBK088976]	98.5
